- Subject of test: recombinant soluble homotrimeric HA of A/Egypt/3300-NAMRU3/08 (H5N1) (Influenza A virus A/Egypt/3300-NAMRU3/2008(H5N1))
- Measurement description: trimeric HA microarray, transfection supernatant set 3
- Measurement context: remark: other sources report otherwise
Measured Trimeric HA Binding: RLU, listed per entry for reference.
Test readout: Trimeric HA Binding: RLU

# Binder, Test readout, Result
data = [
    ("TCN-531 (5091_H13) (antibody, V domains shown) VH: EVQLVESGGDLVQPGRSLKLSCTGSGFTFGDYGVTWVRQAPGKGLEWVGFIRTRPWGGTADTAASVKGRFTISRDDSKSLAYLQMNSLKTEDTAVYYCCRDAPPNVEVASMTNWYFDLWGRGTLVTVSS VL: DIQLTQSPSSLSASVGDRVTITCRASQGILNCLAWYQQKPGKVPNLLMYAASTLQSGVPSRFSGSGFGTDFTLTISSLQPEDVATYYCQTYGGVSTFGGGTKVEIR", "Trimeric HA Binding: RLU", "363 RLU"),
    ("TCN-530 (5248_H10a) (antibody, V domains shown) VH: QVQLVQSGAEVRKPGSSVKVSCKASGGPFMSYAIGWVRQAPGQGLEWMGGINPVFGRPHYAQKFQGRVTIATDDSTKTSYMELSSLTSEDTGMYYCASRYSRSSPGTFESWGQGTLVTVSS VL: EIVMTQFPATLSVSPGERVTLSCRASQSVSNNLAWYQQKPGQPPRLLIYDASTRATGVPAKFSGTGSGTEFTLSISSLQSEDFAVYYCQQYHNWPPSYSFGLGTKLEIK", "Trimeric HA Binding: RLU", "25500 RLU"),
    ("TCN-523 (5248_A17) (antibody, V domains shown) VH: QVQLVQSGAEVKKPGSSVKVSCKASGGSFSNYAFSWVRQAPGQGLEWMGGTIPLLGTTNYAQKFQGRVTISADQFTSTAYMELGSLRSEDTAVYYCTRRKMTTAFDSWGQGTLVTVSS VL: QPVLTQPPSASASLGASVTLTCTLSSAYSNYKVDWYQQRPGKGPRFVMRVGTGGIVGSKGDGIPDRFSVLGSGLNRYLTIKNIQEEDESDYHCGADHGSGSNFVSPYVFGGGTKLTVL", "Trimeric HA Binding: RLU", "29100 RLU"),
    ("TCN-504 (3251_K17) (antibody, V domains shown) VH: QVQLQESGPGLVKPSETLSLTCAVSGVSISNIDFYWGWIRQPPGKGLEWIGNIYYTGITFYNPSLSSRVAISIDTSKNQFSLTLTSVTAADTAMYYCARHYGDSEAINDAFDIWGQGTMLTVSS VL: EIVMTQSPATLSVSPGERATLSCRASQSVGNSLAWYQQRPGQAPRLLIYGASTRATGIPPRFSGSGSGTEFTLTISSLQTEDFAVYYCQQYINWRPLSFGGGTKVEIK", "Trimeric HA Binding: RLU", "18000 RLU"),
]
